Assay: Colonic intubation study: plasma pharmacokinetics of rabeprazole and esomeprazole
Format: in vivo, human
Conditions: male, human, plasma, other: colonic (nasoenteral tube into the transverse colon), 30 mg, TRT A: rabeprazole 30 mg solution in the colon over 20 hours; N = 19; read-out: t1/2 (median) (converted)
REPORTED METRIC: half-life (h)
Reply with just the number (in h).

Query: Consider the compound COCCCOc1ccnc(C[S+]([O-])c2nc3ccccc3[nH]2)c1C (stereo not shown) and give its measured half-life.
Result: 2

====

Assay: Colonic intubation study: plasma pharmacokinetics of rabeprazole and esomeprazole
Format: in vivo, human
Details: male, human, plasma, other: colonic (nasoenteral tube into the transverse colon), 60 mg, TRT B: rabeprazole 60 mg solution in the colon over 20 hours; N = 19
REPORTED METRIC: AUC(0-t) (ng·h/mL)
Write the number in ng·h/mL without appending the unit.

Query: Item under review: COCCCOc1ccnc(C[S+]([O-])c2nc3ccccc3[nH]2)c1C (stereo not shown) [Rabeprazole] . Reported AUC(0-t)?
Result: 549

These data points were gathered from patent US20070298105A1.
